Numbers sourced from patent US11414431B2.

# TESTED_TARGET: human TYK2 (JH2domain-pseudokinase) (Homo sapiens (Human), UniProt P29597)
# Sequence (P29597 556-888): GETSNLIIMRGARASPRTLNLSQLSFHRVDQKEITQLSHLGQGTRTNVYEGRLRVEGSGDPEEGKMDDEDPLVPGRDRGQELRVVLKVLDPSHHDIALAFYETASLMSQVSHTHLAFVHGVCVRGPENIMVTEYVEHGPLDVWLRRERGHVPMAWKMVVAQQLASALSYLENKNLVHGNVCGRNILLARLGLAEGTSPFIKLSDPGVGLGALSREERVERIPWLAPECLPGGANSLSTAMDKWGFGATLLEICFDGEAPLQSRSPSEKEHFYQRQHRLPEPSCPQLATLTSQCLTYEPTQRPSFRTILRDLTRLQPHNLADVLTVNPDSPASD
# PROTOCOL_NOTES: TYK2 JH2 Domain Binding Assay (KINOMEscan)
# RUN_PARAMETERS: 11-point 3-fold dilution, top concentration 30,000 nM, duplicate; read-out: hTYK2_JH2_Binding (Kd; nM)
Kd: recorded values

// worked examples, Kd included
COMPOUND: CNc1cc(-c2cn(C3CN(C)C3)c3ncccc23)nc2c(C(=O)NC3COC[C@H]3O)cnn12 (stereo partly drawn)
Kd: > 10 nM

COMPOUND: CNc1cc(-c2cn([C@H]3C[C@@H](COC)C3)c3ncccc23)nc2c(C(=O)N[C@H]3CC[C@@H]3OC)cnn12
Kd: < 0.2 nM

Quick one: Kd of CNc1cc(-c2cnc3n([C@@H]4CCOC[C@H]4O)cccc2-3)nc2c(C(=O)NC3CC3)cnn12 ?
< 0.2 nM

What does the record list as Kd for O=C(N[C@@H]1CCC1(F)F)c1cnn2c3c(c(-c4cn(C5COC5)c5ncccc45)nc12)OCCN3 ?
< 0.2 nM

Fill in the blank: the reported Kd of CO[C@@H]1CC[C@H]1NC(=O)c1cnn2c(N)cc(Nc3cccn(-c4ccccn4)c3=O)nc12 is ____.
> 10 nM

Name the reported Kd value associated with the compound CNc1cc(Nc2cccn(C3CC(F)(F)C3)c2=O)nc2c(C(=O)N[C@@H]3CCC[C@@](C)(O)C3)cnn12
> 10 nM
